assay: Caspase-3/7 induction in HepG2 cells by small molecules, qHTS cell viability counter screen (AID 1346981); details: CellTiter-Fluor fluorescence, 17 h; series mostly up to 92.4 µM; further: nearly all actives have a fitted effect of over 30% in size
Results filed as inconclusive are left out. Active and inactive are the calls of the source. The call rests on the fitted dose curve; in most records, active means well fitted cell-killing curve with a large enough effect in the repeat runs; inconclusive means weak or mixed curves, or effect the other way; inactive means flat fitted curve, though single readings scatter.
Possible outcomes: active, inactive

1) O=C(CCl)C(Cl)Cl	active
2) CCC(C)(C)C(=O)OC1=C(c2ccc(Cl)cc2Cl)C(=O)OC12CCCCC2	inactive
3) N#CNC#N	inactive
4) c1ccc2c(c1)[nH]c1cnccc12	inactive
5) Oc1ccc(C2(c3ccc(O)cc3)CCCCC2)cc1	active
6) NNC(=O)c1ccccc1	inactive
7) COc1cccc2c1C(=O)c1c(O)c3c(c(O)c1C2=O)C[C@@](O)(C(=O)CO)CC3OC1CC(N2CCOC(OC)C2)C(O)C(C)O1 (stereo partly drawn)	active
8) Clc1ccc(-c2ccccc2)cc1	inactive
